Target: T1, TNFR1 (Homo sapiens, UniProt P19438)
T1 chain: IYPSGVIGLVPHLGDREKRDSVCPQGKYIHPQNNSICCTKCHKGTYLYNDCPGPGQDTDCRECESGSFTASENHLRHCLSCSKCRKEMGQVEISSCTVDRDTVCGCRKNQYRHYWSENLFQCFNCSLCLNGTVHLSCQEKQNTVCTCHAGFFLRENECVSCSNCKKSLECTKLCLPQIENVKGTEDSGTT
Assay: yeast display SC50
quantity.name: apparent Kd (screen) (nM)

- binder: "E67Y (designed binder) MTLQELLREEALRRAEAEAFRYALELLAEKFPEQKEYLLDLAEEIESQIRSLSGVDVEDVRKFLDKYWAWVKELLAEHPAELAEVEAARAARLAELRAEVEAKVAA"
  quantity.name: "apparent Kd (screen)"
  units.label: "nM"
  observed.value: 3.63
- binder: "K72D (designed binder) MTLQELLREEALRRAEAEAFRYALELLAEKFPEQKEYLLDLAEEIESQIRSLSGVDVEDVRKFLDKEWAWVDELLAEHPAELAEVEAARAARLAELRAEVEAKVAA"
  quantity.name: "apparent Kd (screen)"
  units.label: "nM"
  observed.value: 1.05
- binder: "Q48D (designed binder) MTLQELLREEALRRAEAEAFRYALELLAEKFPEQKEYLLDLAEEIESDIRSLSGVDVEDVRKFLDKEWAWVKELLAEHPAELAEVEAARAARLAELRAEVEAKVAA"
  quantity.name: "apparent Kd (screen)"
  units.label: "nM"
  observed.value: 22.2
- binder: "A28Q (designed binder) MTLQELLREEALRRAEAEAFRYALELLQEKFPEQKEYLLDLAEEIESQIRSLSGVDVEDVRKFLDKEWAWVKELLAEHPAELAEVEAARAARLAELRAEVEAKVAA"
  quantity.name: "apparent Kd (screen)"
  units.label: "nM"
  observed.value: 4.83
- binder: "L7D (designed binder) MTLQELDREEALRRAEAEAFRYALELLAEKFPEQKEYLLDLAEEIESQIRSLSGVDVEDVRKFLDKEWAWVKELLAEHPAELAEVEAARAARLAELRAEVEAKVAA"
  quantity.name: "apparent Kd (screen)"
  units.label: "nM"
  observed.value: 0.79
- binder: "V57R (designed binder) MTLQELLREEALRRAEAEAFRYALELLAEKFPEQKEYLLDLAEEIESQIRSLSGVDREDVRKFLDKEWAWVKELLAEHPAELAEVEAARAARLAELRAEVEAKVAA"
  quantity.name: "apparent Kd (screen)"
  units.label: "nM"
  observed.value: 0.79
- binder: "E67V (designed binder) MTLQELLREEALRRAEAEAFRYALELLAEKFPEQKEYLLDLAEEIESQIRSLSGVDVEDVRKFLDKVWAWVKELLAEHPAELAEVEAARAARLAELRAEVEAKVAA"
  quantity.name: "apparent Kd (screen)"
  units.label: "nM"
  observed.value: 20.2
- binder: "G54Q (designed binder) MTLQELLREEALRRAEAEAFRYALELLAEKFPEQKEYLLDLAEEIESQIRSLSQVDVEDVRKFLDKEWAWVKELLAEHPAELAEVEAARAARLAELRAEVEAKVAA"
  quantity.name: "apparent Kd (screen)"
  units.label: "nM"
  observed.value: 1.05

(A) K30T (designed binder) MTLQELLREEALRRAEAEAFRYALELLAETFPEQKEYLLDLAEEIESQIRSLSGVDVEDVRKFLDKEWAWVKELLAEHPAELAEVEAARAARLAELRAEVEAKVAA
(B) R61Y (designed binder) MTLQELLREEALRRAEAEAFRYALELLAEKFPEQKEYLLDLAEEIESQIRSLSGVDVEDVYKFLDKEWAWVKELLAEHPAELAEVEAARAARLAELRAEVEAKVAA
(C) F20K (designed binder) MTLQELLREEALRRAEAEAKRYALELLAEKFPEQKEYLLDLAEEIESQIRSLSGVDVEDVRKFLDKEWAWVKELLAEHPAELAEVEAARAARLAELRAEVEAKVAA
(D) P79E (designed binder) MTLQELLREEALRRAEAEAFRYALELLAEKFPEQKEYLLDLAEEIESQIRSLSGVDVEDVRKFLDKEWAWVKELLAEHEAELAEVEAARAARLAELRAEVEAKVAA
(E) K103I (designed binder) MTLQELLREEALRRAEAEAFRYALELLAEKFPEQKEYLLDLAEEIESQIRSLSGVDVEDVRKFLDKEWAWVKELLAEHPAELAEVEAARAARLAELRAEVEAIVAA
Exercise: Parameters: sort_field (apparent Kd (screen)), sort_dir (desc). List labels; respect the requested ordering.
Solution: C, B, E, A, D
(C: 22.2 nM, B: 10.4 nM, E: 1.05 nM, A: 0.653 nM, D: 0.446 nM)

(1) L93N (designed binder) MTLQELLREEALRRAEAEAFRYALELLAEKFPEQKEYLLDLAEEIESQIRSLSGVDVEDVRKFLDKEWAWVKELLAEHPAELAEVEAARAARNAELRAEVEAKVAA
(2) L82V (designed binder) MTLQELLREEALRRAEAEAFRYALELLAEKFPEQKEYLLDLAEEIESQIRSLSGVDVEDVRKFLDKEWAWVKELLAEHPAEVAEVEAARAARLAELRAEVEAKVAA
Exercise: Given 1 and 2 , report the one with the higher recorded apparent Kd (screen). Reply with the label of the item you choose.
Solution: 1
(1: 0.79 nM, 2: 0.49 nM)
